Below are IC50 values measured for UniProt:Q04771.
Sequence (Q04771 21-509): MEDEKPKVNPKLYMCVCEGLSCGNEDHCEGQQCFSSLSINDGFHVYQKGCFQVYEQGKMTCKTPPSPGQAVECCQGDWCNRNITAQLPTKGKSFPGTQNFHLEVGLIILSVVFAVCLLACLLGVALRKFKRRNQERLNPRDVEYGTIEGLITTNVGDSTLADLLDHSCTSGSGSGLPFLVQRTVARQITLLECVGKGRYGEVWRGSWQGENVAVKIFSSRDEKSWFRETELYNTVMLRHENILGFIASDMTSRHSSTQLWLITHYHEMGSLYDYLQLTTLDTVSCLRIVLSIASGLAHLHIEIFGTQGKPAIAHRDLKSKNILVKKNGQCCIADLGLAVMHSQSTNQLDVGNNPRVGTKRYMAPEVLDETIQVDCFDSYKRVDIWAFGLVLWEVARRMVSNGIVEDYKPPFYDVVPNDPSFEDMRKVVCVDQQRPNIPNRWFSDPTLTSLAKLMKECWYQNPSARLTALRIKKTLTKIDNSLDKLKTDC
ATTRIBUTE_MEASURED: IC50

1) OC[C@@H]1CCCN1c1nc(Nc2cn(-c3ccc4c(c3)OC(F)(F)O4)cn2)c2ccsc2n1 [Compound 432a]    100 to 1000 nM
2) COc1cc(-n2cnc(Nc3nc(N4CCC[C@H]4CO)nc4c3c(C)nn4C)c2)cc(OC)c1OC [Compound 374a]    100 to 1000 nM
3) OC[C@@H]1CCCN1c1nc(Nc2cn(-c3ccc4c(c3)OC(F)(F)O4)cn2)c2cccn2n1 [Compound 433b]    100 to 1000 nM
4) COc1cc(-n2cnc(Nc3nc(N4CCC[C@@H]4C(N)=O)nc4cc(OC(C)C)ccc34)c2)cc(OC)c1OC [Compound 277a]    < 100 nM
5) COc1cc(-n2cnc(Nc3nc(N4CCC[C@@H]4C(N)=O)nc4c3CCCC4)c2)cc(OC)c1OC [Compound 313a]    < 100 nM
6) OC[C@@H]1CCCN1c1nc(Nc2cn(C3CCCC3)cn2)c2cccn2n1 [Compound 50c]    < 100 nM
7) COc1cc(-n2cnc(Nc3nc(N4CCC[C@H]4CO)nc4ncccc34)c2)cc(OC)c1OC [Compound 169c]    < 100 nM
8) COc1ccc(-n2cnc(Nc3nc(N4CCC[C@H]4CO)nn4cccc34)c2)cc1 [Compound 55c]    < 100 nM
9) OC[C@@H]1CCCN1c1nc(Nc2cn(-c3cn(C4CC4)cn3)cn2)c2cccn2n1 [Compound 449d]    < 100 nM
10) COc1cc(-n2cnc(Nc3nc4c(c(N5CCC[C@H]5CO)n3)CNCC4)c2)cc(OC)c1OC [Compound 181d]    < 100 nM
11) COc1cc(-n2cnc(Nc3nc(N4CC[C@@H](N(C)C)C4)nc4ccoc34)c2)cc(OC)c1OC [Compound 251a]    < 100 nM
12) OC[C@@H]1CCCN1c1nc(Nc2cn(-c3ccc(OC(F)(F)F)c(Cl)c3)cn2)c2cccn2n1 [Compound 417e]    > 1000 nM
13) COc1cc(-n2cnc(Nc3nc4c(c(N5CCC[C@H]5CO)n3)CN(C(=O)c3ccc(C#N)cc3)CC4)c2)cc(OC)c1OC [Compound 241a]    < 100 nM
14) COc1cc(-n2cnc(Nc3nc4c(c(N5CCC[C@H]5CO)n3)CCN(C(=O)OC(C)(C)C)C4)c2)cc(OC)c1OC [Compound 182c]    < 100 nM
15) OC[C@@H]1CCCN1c1nc(Nc2nc3ccccc3o2)c2sccc2n1 [Compound 352c]    > 1000 nM
16) Cn1cnc(Nc2nc(Cl)nn3cccc23)c1    > 1000 nM
